Each entry below carries its recorded IC50.
- target.or.system: human muscarinic acetylcholine M3 receptor (M3-ACh) (Homo sapiens)
- Construct: expressed in transfected cells; host or cells: CHO-K1 (Chinese Hamster Ovary) cell membranes
- Sequence (P20309 whole entry): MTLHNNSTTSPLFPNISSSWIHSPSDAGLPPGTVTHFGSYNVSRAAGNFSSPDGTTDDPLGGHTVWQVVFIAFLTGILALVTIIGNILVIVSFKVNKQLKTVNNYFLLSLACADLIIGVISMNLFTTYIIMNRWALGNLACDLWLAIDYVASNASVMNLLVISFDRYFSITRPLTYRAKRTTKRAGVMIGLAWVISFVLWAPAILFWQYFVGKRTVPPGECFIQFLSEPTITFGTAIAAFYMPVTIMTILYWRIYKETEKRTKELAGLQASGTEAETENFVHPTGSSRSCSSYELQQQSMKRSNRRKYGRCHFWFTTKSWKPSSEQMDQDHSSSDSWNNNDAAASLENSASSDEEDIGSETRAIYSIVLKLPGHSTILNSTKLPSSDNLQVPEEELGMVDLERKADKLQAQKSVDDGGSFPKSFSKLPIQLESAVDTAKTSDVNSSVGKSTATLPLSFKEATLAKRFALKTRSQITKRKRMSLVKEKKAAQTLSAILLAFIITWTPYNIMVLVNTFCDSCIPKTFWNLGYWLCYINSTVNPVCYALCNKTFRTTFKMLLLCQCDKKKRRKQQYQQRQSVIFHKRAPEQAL
- protocol.text: biochemical
- Format: binding
- assay.conditions: pIC50 (M3 Binding IC50 classes)

{"compound": "Cc1ccc(OCC[N+]23CCC(CC2)[C@@H](OC(=O)C(C)(c2cccs2)N2CCCCC2)C3)c(C)n1 (single isomer, unassigned)", "IC50": "2 to 10 nM"}
{"compound": "C[C@@](C(=O)O[C@H]1C[N+]2(CC(=O)Nc3ccc(C#N)cc3)CCC1CC2)(c1ccccc1)N1CCCCC1", "IC50": "2 to 10 nM"}
{"compound": "CC(C(=O)O[C@H]1C[N+]2(CCCc3cccnc3)CCC1CC2)(c1ccccc1)N1CCSCC1 (single isomer, unassigned)", "IC50": "2 to 10 nM"}
{"compound": "CC(C(=O)O[C@H]1C[N+]2(CC(=O)Nc3cnccn3)CCC1CC2)(c1cccs1)N1CCSCC1 (single isomer, unassigned)", "IC50": "< 2 nM"}
{"compound": "C[C@@](C(=O)O[C@H]1C[N+]2(CC[C@@H](O)c3ccccc3)CCC1CC2)(c1ccccc1)N1CCCCC1", "IC50": "< 2 nM"}
{"compound": "CC(C(=O)O[C@H]1C[N+]2(Cc3cc(-c4ccccc4)no3)CCC1CC2)(c1cccs1)N1CCSCC1 (single isomer, unassigned)", "IC50": "2 to 10 nM"}

# credit: patent US20100113510A1
